# Tested on: Staphylococcus aureus
# TEST: Antibacterial activity against methicillin-resistant Staphylococcus aureus isolate SA1114 by CLSI M100-S17 protocol based broth dilution method
# Assay type: functional
RECORDED ENDPOINT: MIC (µg/mL)
The figure you give is taken to be in µg/mL; do not add the unit.

# example entries with known answers
What reported MIC corresponds to "CC[C@@H](C)[C@@H](NC(=O)[C@@H](CCC(N)=O)NC(=O)[C@H](CO)NC(=O)[C@@H](NC(=O)[C@@H](Cc1ccccc1)NC)[C@@H](C)CC)C(=O)N[C@H](C(=O)N[C@@H](CO)C(=O)N[C@H]1C(=O)N[C@@H](C)C(=O)N[C@@H](CCC(N)=O)C(=O)N[C@@H]([C@@H](C)CC)C(=O)O[C@H]1C)[C@@H](C)CC" on Staphylococcus aureus? 16

Item "CC[C@@H](C)[C@@H](NC(=O)[C@@H](CCC(N)=O)NC(=O)[C@H](CO)NC(=O)[C@@H](NC(=O)[C@@H](Cc1ccccc1)NC)[C@@H](C)CC)C(=O)N[C@H](C(=O)N[C@@H](CO)C(=O)N[C@H]1C(=O)N[C@@H](C)C(=O)N[C@@H](CSC(C)(C)C)C(=O)N[C@@H]([C@@H](C)CC)C(=O)O[C@H]1C)[C@@H](C)CC" with Staphylococcus aureus - MIC? 4

---
For the record "CC[C@@H](C)[C@@H](NC(=O)[C@@H](CCC(N)=O)NC(=O)[C@H](CO)NC(=O)[C@@H](NC(=O)[C@@H](Cc1ccccc1)NC)[C@@H](C)CC)C(=O)N[C@H](C(=O)N[C@@H](CO)C(=O)N[C@H]1C(=O)N[C@@H](C)C(=O)N[C@@H](C(C)C)C(=O)N[C@@H]([C@@H](C)CC)C(=O)O[C@H]1C)[C@@H](C)CC" , what value of MIC is listed for Staphylococcus aureus? 2

----------
# Test system: Staphylococcus aureus
# TEST: Antibacterial activity against methicillin-resistant Staphylococcus aureus isolate SA1114 by CLSI M100-S17 protocol based broth dilution method
# Format: functional
RECORDED ENDPOINT: MIC (µg/mL)
The reply should contain only the number, in µg/mL.

So what's the measured MIC for this one? "CC[C@@H](C)[C@@H](NC(=O)[C@@H](CCC(N)=O)NC(=O)[C@H](CO)NC(=O)[C@@H](NC(=O)[C@@H](Cc1ccccc1)NC)[C@@H](C)CC)C(=O)N[C@H](C(=O)N[C@@H](CO)C(=O)N[C@H]1C(=O)N[C@@H](C)C(=O)N[C@@H](CC2CC2)C(=O)N[C@@H]([C@@H](C)CC)C(=O)O[C@H]1C)[C@@H](C)CC" 2

----------
# Tested on: Staphylococcus aureus
# TEST: Antibacterial activity against methicillin-resistant Staphylococcus aureus isolate SA1114 by CLSI M100-S17 protocol based broth dilution method
# Assay type: functional
Recorded MIC by entry
Just the number in µg/mL, nothing appended.

Here is how some molecules turned out for MIC.
Checklist item: MIC tested on Staphylococcus aureus, entry "CC[C@@H](C)[C@@H](NC(=O)[C@@H](CCC(N)=O)NC(=O)[C@H](CO)NC(=O)[C@@H](NC(=O)[C@@H](Cc1ccccc1)NC)[C@@H](C)CC)C(=O)N[C@H](C(=O)N[C@@H](CO)C(=O)N[C@H]1C(=O)N[C@@H](C)C(=O)N[C@@H](CC2CCCCC2)C(=O)N[C@@H]([C@@H](C)CC)C(=O)O[C@H]1C)[C@@H](C)CC" , value? 2

Entry "CC[C@@H](C)[C@@H](NC(=O)[C@@H](CCC(N)=O)NC(=O)[C@H](CO)NC(=O)[C@@H](NC(=O)[C@@H](Cc1ccccc1)NC)[C@@H](C)CC)C(=O)N[C@H](C(=O)N[C@@H](CO)C(=O)N[C@H]1C(=O)N[C@@H](C)C(=O)N[C@@H](Cc2ccc(O)c([N+](=O)[O-])c2)C(=O)N[C@@H]([C@@H](C)CC)C(=O)O[C@H]1C)[C@@H](C)CC" , system Staphylococcus aureus: what MIC was measured? 4

Next, consider the following molecule.
Please tell me: MIC of "CCCC[C@@H]1NC(=O)[C@H](C)NC(=O)[C@H](NC(=O)[C@H](CO)NC(=O)[C@@H](NC(=O)[C@H](NC(=O)[C@@H](CCC(N)=O)NC(=O)[C@H](CO)NC(=O)[C@@H](NC(=O)[C@@H](Cc2ccccc2)NC)[C@@H](C)CC)[C@H](C)CC)[C@@H](C)CC)[C@H](C)OC(=O)[C@H]([C@@H](C)CC)NC1=O" , system Staphylococcus aureus? 2

Where do the numbers come from? From ChEMBL document CHEMBL4184242.
